Reference for the values: PubChem BioAssay AID1159580

- Assay info: chemical genetic growth profiling, strain panel (AID 1159580);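 also: tested at 20 µM; growth read once vehicle control cultures reached saturation at 30 °C; lower values mean less growth of the strain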
- Study conditions: S. cerevisiae deletion strains, growth OD, locus YGR092W, strain DBF2
Screen size: about 5,500 compounds; about 2,000 (36%) were called active. About 18% were inconclusive and are not listed. Rule as the data show it: active = normalized growth mostly below about 0.91 (no sharp cut-off); inconclusive = no clear call, values can overlap the other calls; inactive = mostly above about 0.92. The list shows a part of the results.
Possible outcomes: T = active, F = inactive

- Compound: "Cc1ccc(C(=O)Nc2ccc3ccccc3n2)cc1"
  Class: "F"
- Compound: "O=C(Oc1ccc(C2SCCS2)cc1)c1cccs1"
  Class: "F"
- Compound: "O=C(c1ccc(Cl)cc1)N1CCN(c2ccc(C(F)(F)F)cn2)CC1"
  Class: "F"
- Compound: "O=C(NNc1c(Cl)cccc1Cl)c1ccc([N+](=O)[O-])o1"
  Class: "F"
- Compound: "Cc1nc([N+](=O)[O-])cn1CC(=O)c1ccc(Cl)cc1"
  Class: "T"
- Compound: "Cc1nn(Cc2cccc(C(=O)O/N=C(/N)c3ccc(Cl)cc3)c2)c(C)c1Br"
  Class: "F"
- Compound: "CCCCCc1ccc(-c2nc(SCC(C)=O)n[nH]2)cc1"
  Class: "F"
- Compound: "Cc1c(Cl)cccc1N=C1SCC(=O)N1Cc1ccco1"
  Class: "F"
- Compound: "Nc1ccccc1C(=O)N/N=C\\c1cc(Cl)cc(Cl)c1O"
  Class: "T"
- Compound: "Cc1nc(C(F)(F)F)ccc1C(=O)Sc1nnc(-c2ccc(C(F)(F)F)nc2C)o1"
  Class: "F"
- Compound: "Cc1nc(C(F)(F)F)ccc1-c1nnc(SC(=O)c2ccc(Cl)cc2)o1"
  Class: "F"
- Compound: "COc1cccc(C(=O)C(C#N)=C(SC)SC)c1"
  Class: "T"
- Compound: "Fc1ccc(Nc2nc(-c3ccc(F)c(F)c3)cs2)c(F)c1"
  Class: "T"
- Compound: "FC(F)(F)c1ccc(C2Sc3ccccc3N=C3c4ccccc4CC32)cc1 (stereo unspecified)"
  Class: "F"
- Compound: "N/C(=N/OC(=O)c1ccccc1Cl)c1cccc(CS(=O)(=O)c2ccc(Cl)cc2)c1"
  Class: "F"
- Compound: "CN(C)c1nc(=S)ss1"
  Class: "T"
- Compound: "O=C(SCc1c(Cl)cccc1Cl)c1ccc([N+](=O)[O-])o1"
  Class: "T"
- Compound: "O=C(N/N=C\\c1cc(Cl)cc(Cl)c1O)c1ccccc1Oc1ccccc1"
  Class: "F"
- Compound: "Oc1ccc(-n2nnnc2SCc2ccc(OC(F)(F)F)cc2)cc1"
  Class: "F"
- Compound: "CSc1sc(-c2ccn[nH]2)c(-c2ccccc2)c1C#N"
  Class: "F"
- Compound: "CCCCc1ccc(N=CNO)c(C)c1"
  Class: "F"
